target: monoclonal antibody mAB 198; assay: peptide microarray, fluorescence, linear peptide
Measured relative signal [%] by item
OBSERVATION TYPE: relative signal [%] (%)

> print(dat)
                               binder  assay.result
1  YNLKFNP [YNLKFNP, linear mimotope]          13.7
2  RGNPADY [RGNPADY, linear mimotope]           6.9
3                         GGGSLRRNPAD          10.6
4                           LRWNPADYH          15.3
5  LRFNPAD [LRFNPAD, linear mimotope]          37.1
6                         LLGGGSLRFNP          16.7
7                           LRLNPADYG          17.3
8  NPADYPG [NPADYPG, linear mimotope]          19.8
